Values compiled from patent US8530667B2.

- Test system: Digitaria sanguinalis (DIGSA)
- Method description: Example A pre-emergence herbicidal activity, glasshouse pot test
- Assay type: in vivo
- Study conditions: Rate 250 g/ha, evaluated 19 or 20 days later, read-out: Pre-Emergence Activity DIGSA (100=total damage to plant; 0=no damage to plant)
Readout type: pest or weed control at 250 g/ha (%)
The figure you give is taken to be in %; do not add the unit.

Example cases with answers are listed next.
COc1ccc(-c2nc(C3C(=O)[C@@H]4[C@H](C3=O)[C@H]3CC[C@@H]4O3)c(C)s2)cc1 (stereo partly drawn) = 100
CCc1csc(CC)c1C1C(=O)[C@@H]2[C@H](C1=O)[C@H]1CC[C@@H]2O1 (stereo partly drawn) = 30

API: the following record is the query input.
Asked: Looking for the measured pest or weed control at 250 g/ha of CCc1c(Br)sc(C)c1C1C(=O)[C@@H]2[C@H](C1=O)[C@H]1CC[C@@H]2O1 (stereo partly drawn) , can you help?
Given back: 70

---

- Tested on: Avena fatua (AVEFA)
- Method description: Example B pre-emergence herbicidal activity, glasshouse pot test
- Assay type: in vivo
- Study conditions: 312 h, Rate 250 g/ha, evaluated after 13 days, read-out: Pre-Emergence Activity AVEFA (100=total damage to plant; 0=no damage to plant)
Readout type: pest or weed control at 250 g/ha (%)
The figure you give is taken to be in %; do not add the unit.

Asked: Looking for the measured pest or weed control at 250 g/ha of Cc1sc(-c2ccc(I)cc2)nc1C1C(=O)[C@@H]2[C@H](C1=O)[C@H]1CC[C@@H]2O1 (stereo partly shown) , can you help?
Given back: 0

Asked: Would you kindly repeat that for CSc1ccc(-c2nc(C3C(=O)[C@@H]4[C@H](C3=O)[C@H]3CC[C@@H]4O3)c(C)s2)cc1 (stereo partly shown) ?
Given back: 20

Asked: Would you kindly repeat that for Cc1cnc(-c2ccc(Cl)cc2)nc1C1C(=O)[C@@H]2[C@H](C1=O)[C@H]1CC[C@@H]2O1 (stereo partly shown) ?
Given back: 70

Asked: Would you kindly repeat that for Cc1sc(-c2ccc(OC(F)F)cc2F)nc1C1C(=O)[C@@H]2[C@H](C1=O)[C@H]1CC[C@@H]2O1 (stereo partly shown) ?
Given back: 100

---

- Test system: Alopecurus myosuroides (ALOMY)
- Method description: Example B pre-emergence herbicidal activity, glasshouse pot test
- Assay type: in vivo
- Study conditions: 312 h, Rate 250 g/ha, evaluated after 13 days, read-out: Pre-Emergence Activity ALOMY (100=total damage to plant; 0=no damage to plant)
Readout type: pest or weed control at 250 g/ha (%)
The figure you give is taken to be in %; do not add the unit.

Asked: Lookup: pest or weed control at 250 g/ha / Alopecurus myosuroides (ALOMY) / Cc1cc(Br)ccc1-c1nc(C2=C(OC(=O)C(C)(C)C)[C@@H]3[C@H](C2=O)[C@H]2CC[C@@H]3O2)c(C)s1 (racemic) [Compound P7]
Given back: 100

Asked: Would you kindly repeat that for CCc1sc(COc2ccc(Cl)cc2)nc1C1C(=O)[C@@H]2[C@H](C1=O)[C@H]1CC[C@@H]2O1 (stereo partly drawn) [Compound T40] ?
Given back: 90

Asked: Would you kindly repeat that for Cc1sc(-c2ccc(Br)cn2)nc1C1=C(OC(=O)C2CC2)[C@@H]2[C@H](C1=O)[C@H]1CC[C@@H]2O1 (racemic) [Compound P6] ?
Given back: 0
